5-HT1A antag [%] values for the compounds below.
- system tested: 5-HT1A serotoninergic receptors (Homo sapiens)
- Sequence (P08908 whole entry): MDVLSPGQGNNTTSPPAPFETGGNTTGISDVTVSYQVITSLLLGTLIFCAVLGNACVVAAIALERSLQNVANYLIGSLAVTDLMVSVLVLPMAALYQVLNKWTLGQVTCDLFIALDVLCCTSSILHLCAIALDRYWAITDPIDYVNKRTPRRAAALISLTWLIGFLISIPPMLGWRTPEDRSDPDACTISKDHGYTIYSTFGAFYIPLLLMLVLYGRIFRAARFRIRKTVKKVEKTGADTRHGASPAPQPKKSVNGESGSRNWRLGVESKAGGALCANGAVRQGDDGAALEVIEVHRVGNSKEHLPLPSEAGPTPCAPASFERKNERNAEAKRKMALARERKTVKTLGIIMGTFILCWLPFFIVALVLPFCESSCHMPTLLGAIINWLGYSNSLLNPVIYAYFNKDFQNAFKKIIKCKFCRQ
- assay notes: Cellular functional assay, 5-HT1A serotoninergic receptors; further: test concentration or dose not given here
- Type: cell-based
- measurement setup: antagonist mode
The answer is to be given in %; state only the numeric part.

Reference set, count: 3
O=S(=O)(NC1CN(CCOc2cccc3c2OCCO3)C1)c1cccc2ccccc12 | 90
Cc1cccc(S(=O)(=O)NC2CN(CCOc3cccc4c3OCCO4)C2)c1 | 76
O=S(=O)(NC1CN(CCOc2cccc3c2OCCO3)C1)c1ccc(Cl)cc1 | 89

Then this compound:
stdin: Field request: 5-HT1A antag [%] | item: O=S(=O)(NC1CCN(CCOc2cccc3[nH]ccc23)CC1)c1ccccc1
stdout: 18
